Data provenance is patent US20240368120A1.

biological target: human GLP-1R receptor (Homo sapiens, UniProt P43220); construct: expressed in transfected cells; test: GLP-1R low expression cell assay (cAMP TR-FRET, CHO-K1_hGLP-1Rlow_clone10 cells); format: cell-based; settings: maximum activation relative to control GLP-1 peptide agonist
Sequence (P43220 24-463): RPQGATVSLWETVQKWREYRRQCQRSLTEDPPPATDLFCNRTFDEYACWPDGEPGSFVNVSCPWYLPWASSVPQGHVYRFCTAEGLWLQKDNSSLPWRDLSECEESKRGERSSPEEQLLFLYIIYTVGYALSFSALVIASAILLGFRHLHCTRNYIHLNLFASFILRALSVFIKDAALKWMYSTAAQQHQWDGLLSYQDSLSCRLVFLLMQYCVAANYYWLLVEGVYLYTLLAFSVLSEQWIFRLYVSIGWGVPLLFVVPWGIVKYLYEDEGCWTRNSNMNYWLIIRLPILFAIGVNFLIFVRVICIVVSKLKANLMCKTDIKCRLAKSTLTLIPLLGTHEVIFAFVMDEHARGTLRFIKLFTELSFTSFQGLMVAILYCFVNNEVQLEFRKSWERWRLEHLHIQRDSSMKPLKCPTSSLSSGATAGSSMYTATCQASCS
attribute.measured: Emax

INSERT INTO measurements (compound, endpoint_result) VALUES
  ('CC(Oc1ccccc1C1CCN(Cc2nc3c(OC(F)F)cc(C(=O)O)cc3n2C)CC1)c1ccc(C#N)cc1F (single isomer, unassigned)', '< 25%'),
  ('COc1ccc(C2CCN(Cc3nc4c(OC(F)F)cc(C(=O)O)cc4n3C)CC2)cc1OCc1ccc(Cl)cc1F', '< 25%'),
  ('Cn1c(CN2CCC(c3cccc(OCc4ccc(C#N)cc4F)n3)CC2)nc2c(OCF)cc(C(=O)O)cc21', '> 85%'),
  ('Cn1c(CN2CCC(c3cccc(OCc4ccc(Cl)cn4)n3)CC2)nc2c(OC(F)F)cc(C(=O)O)cc21', '> 85%'),
  ('Cn1c(CN2CCC(Oc3cccc(COc4ccc(C#N)cc4F)n3)CC2)nc2c(OC(F)F)cc(C(=O)O)cc21', '> 85%');

Q: # query: Emax | item COc1c(F)c(C(=O)O)cc2nc(CN3CCC(c4cccc(OCc5ccc(C#N)cc5F)n4)CC3)n(C)c12 | system: human GLP-1R receptor (Homo sapiens, UniProt P43220)
Result: < 25%

Q: # get_value(readout= Emax, system= human GLP-1R receptor (Homo sapiens, UniProt P43220)) for Cn1c(CN2CCC(c3cccc4c3O[C@H](c3ccc(Cl)cc3F)CC4)CC2)nc2c(OC(F)F)cc(C(=O)O)cc21
Result: 25 to 50%

Q: Please state recorded Emax (tested on human GLP-1R receptor (Homo sapiens, UniProt P43220)) of COc1cc(C(=O)O)cc2c1nc(Cc1cc(F)c(-c3cccc(OCc4ccc(Cl)cc4F)n3)cc1F)n2C
Result: > 85%

Q: Could you share what Emax was measured for COc1cc(C#N)ccc1COc1cccc(C2CCN(Cc3nc4c(OC)cc(C(=O)O)cc4n3C)CC2)n1 , tested on human GLP-1R receptor (Homo sapiens, UniProt P43220)?
Result: > 85%

Q: Lab request: please report Emax under test system human GLP-1R receptor (Homo sapiens, UniProt P43220) for COc1cc(C(=O)O)cc2c1nc(CN1CCN(c3cccc(OCc4ccc(Cl)cc4F)n3)CC1)n2C
Result: > 85%

Q: Query the reported Emax for human GLP-1R receptor (Homo sapiens, UniProt P43220); item: Cn1c(CN2CCC(c3cccc4c3O[C@H](c3ccc(Cl)cc3F)CO4)CC2)nc2c(OC(F)F)cc(C(=O)O)cc21
Result: 50 to 85%

Q: Entry Cn1c(Cc2ccc(-c3cccc(OCc4ccc(Cl)cc4F)n3)cc2F)nc2c(OC(F)F)cc(C(=O)O)cc21 , system human GLP-1R receptor (Homo sapiens, UniProt P43220): what Emax was measured?
Result: > 85%

Q: Record Cn1c(CN2CCC(c3cccc(OCc4ccc(C#N)cc4F)n3)CC2)nc2c(OCC(F)(F)F)cc(C(=O)O)cc21 : what is its Emax with human GLP-1R receptor (Homo sapiens, UniProt P43220)?
Result: > 85%

Q: Which measured Emax belongs to COCCOc1cc(C(=O)O)cc2c1nc(CN1CCC(c3cccc4c3O[C@](C)(c3ccc(Cl)cn3)O4)CC1)n2Cc1cncs1 , tested on human GLP-1R receptor (Homo sapiens, UniProt P43220)?
Result: > 85%
